# system_name: PAR1 (Homo sapiens (Human), UniProt P25116)
# Sequence (P25116 22-425): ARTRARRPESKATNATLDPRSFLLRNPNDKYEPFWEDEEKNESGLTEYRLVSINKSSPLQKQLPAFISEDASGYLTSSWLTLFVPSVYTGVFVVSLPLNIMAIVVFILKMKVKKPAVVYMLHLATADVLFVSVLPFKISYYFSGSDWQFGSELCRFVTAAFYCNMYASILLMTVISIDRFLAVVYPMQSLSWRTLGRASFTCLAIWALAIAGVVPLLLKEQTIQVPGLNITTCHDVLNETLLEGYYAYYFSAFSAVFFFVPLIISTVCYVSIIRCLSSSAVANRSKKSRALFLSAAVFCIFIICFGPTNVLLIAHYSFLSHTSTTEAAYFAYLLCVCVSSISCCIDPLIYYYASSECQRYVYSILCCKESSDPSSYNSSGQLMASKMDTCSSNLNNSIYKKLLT
# assay_name: Par-1 FLIPR assay (calcium, HEK 293 cells, PAR1 activating peptide)
# condition_context: PAR1 selective receptor-activating peptide at 80% activation
pIC50: −log10 of the molar value.
observable: pIC50

C[C@H]1OC(=O)C2CC(F)(F)[C@@H](C)[C@H](/C=C/c3ccc(-c4ccccc4Cl)cn3)C21 (stereo partly shown) ... 8.57
C[C@H]1OC(=O)[C@]2(NCC3CC3)CC(F)(F)[C@@H](C)[C@H](/C=C/c3ccc(-c4ccccc4C#N)cn3)[C@H]12 ... 8.57
C[C@H]1OC(=O)C2CC(F)(F)[C@@H](C)[C@H](/C=C/c3ccc(-c4cccc(F)c4)cn3)C21 (stereo partly shown) ... 8.30
Cc1cc(C(=O)N[C@@]23CC(F)(F)[C@@H](C)[C@H](/C=C/c4ccc(-c5ccccc5C#N)cn4)[C@@H]2[C@@H](C)OC3=O)no1 ... 8.47
